- assayedTarget: FAP (Homo sapiens, UniProt Q12884)
- Construct: Target cells: WI-38 cells (typically 1000-20,000 cells per well); endogenous in cells; host or cells: WI-38 cells
- Sequence (Q12884 whole entry): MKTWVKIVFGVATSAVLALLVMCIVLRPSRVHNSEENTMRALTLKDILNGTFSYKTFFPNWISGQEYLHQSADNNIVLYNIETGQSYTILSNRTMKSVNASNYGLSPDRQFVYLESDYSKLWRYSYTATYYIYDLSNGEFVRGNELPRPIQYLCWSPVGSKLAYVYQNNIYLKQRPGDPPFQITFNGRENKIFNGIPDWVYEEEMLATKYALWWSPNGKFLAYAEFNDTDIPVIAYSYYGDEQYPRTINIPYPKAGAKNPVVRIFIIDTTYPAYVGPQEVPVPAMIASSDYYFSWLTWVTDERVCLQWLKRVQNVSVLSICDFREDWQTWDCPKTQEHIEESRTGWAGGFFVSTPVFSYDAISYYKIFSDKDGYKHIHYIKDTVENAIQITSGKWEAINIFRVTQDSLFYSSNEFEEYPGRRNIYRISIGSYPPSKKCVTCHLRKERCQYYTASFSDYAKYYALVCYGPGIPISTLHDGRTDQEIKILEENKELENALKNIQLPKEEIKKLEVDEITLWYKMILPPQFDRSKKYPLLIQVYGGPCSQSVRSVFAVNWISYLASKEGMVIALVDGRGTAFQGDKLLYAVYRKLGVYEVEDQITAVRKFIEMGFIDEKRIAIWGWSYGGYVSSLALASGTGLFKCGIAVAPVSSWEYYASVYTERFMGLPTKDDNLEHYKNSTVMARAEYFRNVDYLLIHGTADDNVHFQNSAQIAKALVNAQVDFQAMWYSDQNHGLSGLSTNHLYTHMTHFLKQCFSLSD
- experiment: Antibody dependent cellular cytotoxicity (ADCC) reporter assay
- Type: cell-based
- statedConditions: WI-38 target cells; Jurkat FcγRIIIa NFAT-luciferase reporter cells; with anti-cotinine antibody (SEQ ID NO: 11/12); 12-18 hours; average if more than one run; read-out: ADCC Reporter Assay pEC50 (converted)
measuredProperty: EC50 (nM)
Hi! Could you send only the number? It should be in nM, unit omitted.

>>> number("CN(CCNC(=O)CCOCCOCCOCCOCCOCCOCCOCCOCCOCCOCCOCCOCCOCCOCCOCCOCCOCCOCCOCCOCCOCCOCCOCCOCCNC(=O)[C@H]1CC(=O)N(C)[C@@H]1c1cccnc1)c1ccc2nccc(C(=O)NCC(=O)N3CC(F)(F)C[C@H]3C#N)c2c1 [Example 7]")
5.01

Would you kindly look at the next entry?
Query (compound): CN(CCNC(=O)[C@H]1CC[C@H](NC(=O)CCCO[C@H]2CC[C@H](OCCNC(=O)[C@H]3CC[C@H](NC(=O)CCCO[C@H]4CC[C@H](OCCNC(=O)[C@H]5CC(=O)N(C)[C@@H]5c5cccnc5)CC4)CC3)CC2)CC1)c1ccc2nccc(C(=O)NCC(=O)N3CC(F)(F)C[C@@H]3C#N)c2c1 (racemic) [Example 1] ; field requested: EC50 3.98

Values compiled from patent US20250064947A1.
